Cited source for all entries: patent US9833497B2

Tested on: Enterobacter cloacae
Assay: MIC against Gram-negative bacteria: Enterobacter cloacae
Format: cell-based
Conditions: E. cloacae; 10 h cultivation at 37° C.
property: MIC

# count of solved cases: 2
PRT936 (VLAPCSPNPCENAAVCKESPNFESYTCLCAPGWQGQRCT; listed as Homo sapiens) | 12.5 µg/mL
PRT909 (LVDECSPSPCQNGATCTDYLGGYSCKCVAGYHGVNCS; listed as Homo sapiens) | 25 µg/mL

Known value: Enterobacter cloacae MIC of the substance PRT947 (NIDDCARGPHCLNGGQCMDRIGGYSCRCLPGFAGERCE; listed as Homo sapiens) equals 12.5 µg/mL

Known value: Enterobacter cloacae MIC of the substance PRT956 (NIDDCAFASCTPGSTCIDRVASFSCMCPEGKAGLLCH; listed as Homo sapiens) equals 12.5 µg/mL

Known value: Enterobacter cloacae MIC of the substance PRT963 (QVDECRSQPCRHGGKCLDLVDKYLCRCPSGTTGVNCE; listed as Homo sapiens) equals 25 µg/mL

Known value: Enterobacter cloacae MIC of the substance PRT1041 (VPLCAQECVHGRCVAPNQCQCVPGWRGDDCS; listed as Homo sapiens) equals 50 µg/mL

Known value: Enterobacter cloacae MIC of the substance PRT929 (QIDECYSSPCLNDGRCIDLVNGYQCNCQPGTSGVNCE; listed as Homo sapiens) equals 50 µg/mL

Known value: Enterobacter cloacae MIC of the substance PRT997 (EVDECLSDPCPVGASCLDLPGAFFCLCPSGFTGQLCE; listed as Homo sapiens) equals 50 µg/mL
